reportedEndpoint: melting point

Completed entries (count: 8):
# molecule, melting point
records = [
    ("Cc1cc(O)c2c(c1)C(C)(C)CC2(C)C", "66 °C"),
    ("O=C1N(Cc2ccc3c(c2)OCCO3)c2ccccc2C12COc1cc3c(cc12)CCO3 (stereo unspecified)", "173 to 175 °C"),
    ("Cc1cc2nccn2nc1OCC(C)(C)CCS(N)(=O)=O", "161 to 162 °C"),
    ("Cc1cc(-c2ccccc2O)nn1-c1ccccc1", "225 to 229 °C"),
    ("O=C(O)c1ccc(OC(F)(F)F)c([N+](=O)[O-])c1", "137 to 139 °C"),
    ("CCCCCCCCCCCCn1nnc(NC(=O)CS(=O)(=O)Nc2c(C(C)C)cccc2C(C)C)n1", "138 to 140 °C"),
    ("CC1(C)c2ccc([N+](=O)[O-])cc2C(NC(=O)Nc2ccccc2)C1O (stereo unspecified)", "194 to 195 °C"),
    ("CC(=O)Oc1ccc2c(c1)COc1cc3cc(OC(C)=O)ccc3cc1-2", "194 to 195 °C"),
]

Task: Supply recorded melting point for `COc1ccc2c(Cl)cc(-c3ccc(Cl)c(Cl)c3)nc2c1` here.
Result: 122 to 131 °C

Task: Supply recorded melting point for O=c1cc(-c2ccncc2)nc2n1CCC(c1ccncc1)N2CC(O)c1cccc(Br)c1 (stereo unspecified) here.
Result: 190 to 192 °C

Task: Supply recorded melting point for `Cc1ccc(S(=O)(=O)NCC2(N3CCN(C)CC3)CCCCC2)cc1` here.
Result: 128 to 130 °C

Task: Supply recorded melting point for `CCCCNc1ncc(C(=O)c2ccc(N)c([N+](=O)[O-])c2)s1` here.
Result: 198 to 203 °C

Task: Supply recorded melting point for Cn1c(=O)c(S(C)=O)c(O)c2ccccc21 (stereo unspecified) here.
Result: 197 to 200 °C
